# system_under_test: Bromodomain-containing protein 4 (Homo sapiens, UniProt O60885)
# assay_summary: Inhibition of His-tagged BRD4 bromodomain 1 (unknown origin) using [Lys (5,8,12,16) Ac] H4(1-21) as substrate by fluorescence based assay
Below, each entry is listed with its recorded pIC50.
By convention, pIC50 is the negative base-10 log of a molar concentration.

- molecular_string: "Cn1cc(-c2ccccc2Oc2ccccc2)c2cc(C(=O)NCc3ccc(C(=O)NO)cc3)[nH]c2c1=O"
  pIC50: 7.38
- molecular_string: "Cn1cc(-c2cc(C(C)(C)O)ccc2OC2CC2)c2cc(C(=O)NCc3ccc(C(=O)Nc4ccccc4N)cc3)[nH]c2c1=O"
  pIC50: 8.11
- molecular_string: "Cn1cc(-c2cc(C(C)(C)O)ccc2Oc2ccc(F)cc2F)c2cc(C(=O)NCCCCCCC(=O)NO)[nH]c2c1=O"
  pIC50: 7.27
- molecular_string: "Cc1cccc(-c2cn(C)c(=O)c3[nH]c(C(=O)NCc4ccc(C(=O)Nc5ccccc5N)cc4)cc23)c1"
  pIC50: 7.28
- molecular_string: "Cc1ccc(-c2cn(C)c(=O)c3[nH]c(C(=O)NCc4ccc(C(=O)Nc5ccccc5N)cc4)cc23)cc1"
  pIC50: 7.21
- molecular_string: "Cn1cc(-c2ccccc2Oc2ccccc2)c2cc(C(=O)NCCCCCC(=O)NO)[nH]c2c1=O"
  pIC50: 7.67
- molecular_string: "Cn1cc(-c2ccccc2C(F)(F)F)c2cc(C(=O)NCc3ccc(C(=O)Nc4ccccc4N)cc3)[nH]c2c1=O"
  pIC50: 6.43
- molecular_string: "Cn1cc(-c2ccccc2Oc2ccccc2)c2cc(C(=O)NCCCCCC(=O)Nc3ccccc3N)[nH]c2c1=O"
  pIC50: 6.23

Prompt: Look up pIC50: Cn1cc(-c2ccccc2Oc2ccccc2)c2cc(C(=O)NCCCC(=O)NO)[nH]c2c1=O
Completion: 6.85
